The reported numbers originate from the supplement of paper PMC10627819.

Each record here notes measured Bliss interaction score.
Test system: S. aureus DSM 20231;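 note: first quartile when negative (synergy) and third quartile when positive (antagonism)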
assayExplanation: Bliss interaction score (quartile over a dose matrix) (fitness difference); higher = more antagonism (negative = synergy)
Field format: numeric only.

>>> experimentalresult("CO/N=C(\\C(=O)N[C@@H]1C(=O)N2C(C(=O)O)=C(COC(C)=O)CS[C@H]12)c1csc(N)n1 [Cefotaxime] + C[C@H]1c2cccc(O)c2C(=O)C2=C(O)[C@]3(O)C(=O)C(C(N)=O)=C(O)[C@@H](N(C)C)[C@@H]3[C@@H](O)[C@@H]21 [Doxycycline]")
0.141
>>> experimentalresult("CN(C)[C@@H]1C(O)=C(C(N)=O)C(=O)[C@@]2(O)C(O)=C3C(=O)c4c(O)ccc(Cl)c4[C@@](C)(O)[C@H]3C[C@@H]12 [Clortetracycline] + CC[C@H]1OC(=O)[C@H](C)C(=O)[C@H](C)[C@@H](O[C@@H]2O[C@H](C)C[C@H](N(C)C)[C@H]2O)[C@](C)(OC)C[C@@H](C)C(=O)[C@H](C)[C@H]2N(CCCCn3cnc(-c4cccnc4)c3)C(=O)O[C@]12C [Telithromycin]")
-0.0731

Then this compound:
Qu. # query: Bliss interaction score of entry CN(C)[C@@H]1C(O)=C(C(N)=O)C(=O)[C@@]2(O)C(O)=C3C(=O)c4c(O)ccc(Cl)c4[C@@](C)(O)[C@H]3C[C@@H]12 [Clortetracycline] + CC[C@H]1OC(=O)[C@H](C)[C@@H](O[C@H]2C[C@@](C)(OC)[C@@H](O)[C@H](C)O2)[C@H](C)[C@@H](O[C@@H]2O[C@H](C)C[C@H](N(C)C)[C@H]2O)[C@](C)(O)C[C@@H](C)C(=O)[C@H](C)[C@@H](O)[C@]1(C)O [Erythromycin]
Ans. -0.118
